target: NMDAR2A expressing HEK cell membranes (Homo sapiens); construct: expressed in transfected cells; host or cells: HEK cells (membrane extract); test: NMDAR agonist assay, [3H]MK-801 binding, NMDAR2A; assay type: biochemical; set-up: key: log EC50: 0=−; ≥1×10^−9 M (e.g., −8)=+; <1×10^−9 M (e.g., −10)=++; details: 50 μM glutamate
Sequence (Q12879 23-1464, other chains not shown): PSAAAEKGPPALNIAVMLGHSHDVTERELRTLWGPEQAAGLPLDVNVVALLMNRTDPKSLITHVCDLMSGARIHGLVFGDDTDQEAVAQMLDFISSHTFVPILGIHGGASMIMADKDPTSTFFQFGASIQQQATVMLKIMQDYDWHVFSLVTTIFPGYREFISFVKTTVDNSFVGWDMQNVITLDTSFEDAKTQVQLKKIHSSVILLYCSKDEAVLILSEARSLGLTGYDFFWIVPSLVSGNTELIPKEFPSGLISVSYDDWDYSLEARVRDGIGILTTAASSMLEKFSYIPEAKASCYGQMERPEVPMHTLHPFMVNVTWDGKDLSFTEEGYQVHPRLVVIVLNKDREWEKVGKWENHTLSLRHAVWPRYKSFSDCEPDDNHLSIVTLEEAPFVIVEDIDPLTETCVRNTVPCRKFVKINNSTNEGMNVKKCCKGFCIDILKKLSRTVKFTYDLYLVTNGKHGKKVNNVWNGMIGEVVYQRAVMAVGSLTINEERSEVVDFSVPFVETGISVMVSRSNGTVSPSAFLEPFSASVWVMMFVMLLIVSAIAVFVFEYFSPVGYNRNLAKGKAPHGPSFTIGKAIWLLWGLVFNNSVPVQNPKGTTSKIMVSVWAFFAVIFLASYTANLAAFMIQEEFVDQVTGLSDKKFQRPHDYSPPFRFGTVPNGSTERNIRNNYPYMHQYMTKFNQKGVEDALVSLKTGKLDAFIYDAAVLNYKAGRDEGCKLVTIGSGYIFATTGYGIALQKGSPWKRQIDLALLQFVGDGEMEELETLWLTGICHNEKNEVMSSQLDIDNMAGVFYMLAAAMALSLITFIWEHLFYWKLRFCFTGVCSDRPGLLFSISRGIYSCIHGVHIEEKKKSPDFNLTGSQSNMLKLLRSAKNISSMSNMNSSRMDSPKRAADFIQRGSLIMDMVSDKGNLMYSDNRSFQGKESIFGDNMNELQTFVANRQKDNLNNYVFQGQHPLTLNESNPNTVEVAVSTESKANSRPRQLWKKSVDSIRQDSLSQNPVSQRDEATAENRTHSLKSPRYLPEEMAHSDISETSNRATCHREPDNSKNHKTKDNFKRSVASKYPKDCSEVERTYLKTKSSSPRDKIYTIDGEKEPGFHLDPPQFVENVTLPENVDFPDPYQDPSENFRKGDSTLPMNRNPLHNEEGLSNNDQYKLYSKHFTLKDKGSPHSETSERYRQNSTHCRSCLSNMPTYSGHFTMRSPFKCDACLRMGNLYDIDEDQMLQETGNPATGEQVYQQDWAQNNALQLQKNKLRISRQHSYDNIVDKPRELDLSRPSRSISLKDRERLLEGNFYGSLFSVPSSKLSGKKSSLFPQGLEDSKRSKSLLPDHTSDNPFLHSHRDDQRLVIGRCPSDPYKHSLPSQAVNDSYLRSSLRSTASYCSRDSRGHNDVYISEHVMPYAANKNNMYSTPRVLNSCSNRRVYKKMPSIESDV
measured_endpoint: NMDAR2A B: log EC50

molecule	result
NC(=O)CN1CC2(CCNC(=O)C2)C1=O (single isomer, unassigned)	−
CC1CC(=O)N(c2ccc(F)cc2)C12CN(Cc1ccccc1)C2=O (single isomer, unassigned) [BX]	−
CNC(=O)[C@H]([C@@H](C)O)N1CC2(CCNC(=O)C2)C1=O (single isomer, unassigned) [DB]	−
COc1ccc(CN2C[C@@]3(CCNC(=O)C3)C2=O)cc1	−
